- Tested on: in vivo angiogenesis, blood vessel count
- METHOD SUMMARY: reduction of blood vessel formation in vivo – HTS, in vivo study (AID 732);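 also: zebrafish embryos dosed at one day post fertilization; 0% = reference inhibitor and 100% = plate mean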
- CONDITION LABEL: stronger effect = lower value;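 tested at 30 µM in the well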
TEST READOUT: vessel count % control (%)
Numbers only, in %.

[
  {
    "COMPOUND": "CN1C[C@H](C(=O)N[C@]2(C)O[C@@]3(O)[C@@H]4CCCN4C(=O)[C@H](Cc4ccccc4)N3C2=O)C[C@@H]2c3cccc4[nH]cc(c34)C[C@H]21",
    "TEST READOUT": "vessel count % control",
    "VALUE UNIT": "%",
    "OBSERVED": 98.7
  },
  {
    "COMPOUND": "COc1ccc(Cl)cc1C(=O)NCCc1ccc(S(=O)(=O)NC(=O)NC2CCCCC2)cc1",
    "TEST READOUT": "vessel count % control",
    "VALUE UNIT": "%",
    "OBSERVED": 94.8
  },
  {
    "COMPOUND": "FC(F)(F)c1ccccc1-n1ccnc1",
    "TEST READOUT": "vessel count % control",
    "VALUE UNIT": "%",
    "OBSERVED": 93.4
  }
]

Provide the reported vessel count % control of each entry below, same order.
1. CN1CCc2cc(O)cc3c2[C@H]1Cc1ccc(O)c(O)c1-3
2. C[C@]12CC[C@@H]3c4ccc(O)cc4CC[C@H]3[C@@H]1CCC2=O
3. CCCOc1ccccc1-c1nc2n[nH]nc2c(=O)[nH]1
4. CCCn1c(=O)c2[nH]c(-c3ccc(S(=O)(=O)O)cc3)nc2n(CCC)c1=O
5. CN(C(=O)CCCOc1ccc2[nH]c(=O)ccc2c1)C1CCCCC1
6. O=C1NC(=O)C(c2ccccc2)(c2ccccc2)N1

[A]
[96.7, 111, 119, 70.2, 94.5, 92.7]

For every item in the list below, what is its measured vessel count % control?
1. COc1nc(C)nc(Cl)c1NC1=NCCN1
2. C=CCc1ccccc1OCC(O)CNC(C)C (stereo not drawn)

[A]
1: 81.3; 2: 105

State recorded vessel count % control for all listed compounds.
1. Fc1ccc(C(OCCN2CCN(CCCc3ccccc3)CC2)c2ccc(F)cc2)cc1
2. O=c1cc(-c2ccccc2)[nH]c2nc(Cl)ccc12
3. CN(C)C(=O)C(CCN1CCC(O)(c2ccc(Cl)cc2)CC1)(c1ccccc1)c1ccccc1
4. COc1ccccc1N1CCN(CCCNc2cc(=O)n(C)c(=O)n2C)CC1
5. CCCCCCCCCCCCCCCC(=O)NCC(COP(=O)([O-])OCC[N+](C)(C)C)OCC (stereo not drawn)
6. N[C@@H](CS(=O)O)C(=O)O

[A]
1: 71.4; 2: 0; 3: 126; 4: 111; 5: 115; 6: 111

Case Clc1cccc(N2CCNCC2)c1 , in vivo angiogenesis, blood vessel count, vessel count % control recorded as 101

###

Can you tell me vessel count % control for the items I'm about to list?
- System: in vivo angiogenesis, blood vessel count
- METHOD SUMMARY: reduction of blood vessel formation in vivo – HTS, in vivo study (AID 732);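 also: zebrafish embryos dosed at one day post fertilization; 0% = reference inhibitor and 100% = plate mean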
- CONDITION LABEL: stronger effect = lower value;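 tested at 30 µM in the well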
Answers are plain numbers, in %.

[
  {
    "COMPOUND": "CN(C)C(=O)Oc1cccc([N+](C)(C)C)c1",
    "VALUE UNIT": "%",
    "vessel count % control": 87.6
  },
  {
    "COMPOUND": "CNCCc1ccc(O)c(O)c1",
    "VALUE UNIT": "%",
    "vessel count % control": 96.5
  },
  {
    "COMPOUND": "CCCN(CCC)C1CCc2cccc(O)c2C1 (configuration not stated)",
    "VALUE UNIT": "%",
    "vessel count % control": 111
  },
  {
    "COMPOUND": "NC[C@@H]1O[C@H](C23CC4CC(CC(C4)C2)C3)Cc2c1ccc(O)c2O",
    "VALUE UNIT": "%",
    "vessel count % control": 110
  },
  {
    "COMPOUND": "CC(N)(C(=O)O)c1ccc(C(=O)O)cc1 (configuration not stated)",
    "VALUE UNIT": "%",
    "vessel count % control": 93.5
  },
  {
    "COMPOUND": "C[C@@H](CN1CCC(Cc2ccccc2)CC1)[C@@H](O)c1ccc(O)cc1",
    "VALUE UNIT": "%",
    "vessel count % control": 112
  }
]

Quick one: give me vessel count % control for each item below, same order please.
1. COC(=O)C1=C(C)NC(C)=C([N+](=O)[O-])C1c1ccccc1C(F)(F)F (configuration not stated)
2. CCN(CC)CCNC(=O)c1cc(S(C)(=O)=O)ccc1OC
3. C=CCN1C[C@@H](C)N([C@H](c2ccc(C(=O)N(CC)CC)cc2)c2cccc(OC)c2)C[C@@H]1C
4. O=C(O)c1cc(=O)c2ccc(Cl)cc2[nH]1
5. C[N+]1(C)CCOC(O)(c2ccc(-c3ccc(C4(O)C[N+](C)(C)CCO4)cc3)cc2)C1 (configuration not stated)
6. CC[N+](C)(C)c1cccc(O)c1

[A]
1: 92.2; 2: 68.7; 3: 85.2; 4: 110; 5: 103; 6: 114

For each of the compounds below, state vessel count % control.
1. C[C@H](CS)C(=O)N1CCC[C@H]1C(=O)O
2. Cc1nc2n(c(=O)c1CCN1CCC(c3noc4cc(F)ccc34)CC1)CCCC2
3. CCCn1c(=O)[nH]c(=O)c2[nH]cnc21
4. O=C(O)c1nn(Cc2ccc(Cl)cc2Cl)c2ccccc12
5. O=Nc1c(-c2c(O)[nH]c3ccccc23)[nH]c2ccccc12
6. O=C(OCCN1CCOCC1)C1(c2ccccc2)CCCCC1

[A]
1. 100
2. 104
3. 97.5
4. 87.2
5. 15.6
6. 91.6

Batch lookup, vessel count % control per entry.
1. NCC1OC(O[C@@H]2[C@H](O)C(OC3C(O)C(N)CC(N)C3OC3OC(CO)C(O)C(O)C3N)O[C@@H]2CO)C(N)C(O)C1O (some centres not stated)
2. O=c1cc(O)cc(/C=C/c2ccc(O)c(O)c2)o1
3. Brc1c(NC2=NCCN2)ccc2nccnc12
4. CC(C)Oc1cccnc1N(C)C1CCN(Cc2ccccc2)CC1
5. O=C(O)CCCc1ccc(N(CCCl)CCCl)cc1
6. O=C(c1cc(O)c(O)c([N+](=O)[O-])c1)c1ccccc1F

[A]
1: 116; 2: 122; 3: 104; 4: 98.1; 5: 118; 6: 116

Look up vessel count % control for the entries below, preserving their order.
1. C[C@]12CCC3C(CC[C@H]4C[C@H](O)CC[C@]34C)C1CC[C@@H]2C(=O)CO (some centres not stated)
2. OC[C@H]1O[C@@H](n2cnc3cncnc32)[C@H](O)[C@@H]1O
3. CNC[C@H](O)c1ccc(O)c(O)c1

[A]
1. 105
2. 82.1
3. 94

Provenance of the data: PubChem BioAssay AID732
